# test-description: chemical genetic growth profiling, strain panel (AID 1159580);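 also: tested at 20 µM; growth read once vehicle control cultures reached saturation at 30 °C; lower values mean less growth of the strain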
# settings: S. cerevisiae deletion strains, growth OD, locus YDL185W, strain tfp1
About 2,000 (36%) of roughly 5,500 compounds were called active. About 18% were inconclusive and are not listed. Rule as the data show it: active = normalized growth mostly below about 0.91 (no sharp cut-off); inconclusive = no clear call, values can overlap the other calls; inactive = mostly above about 0.92. The list shows a part of the results.
One label from this list, please: active, inactive

Observe how each entry below is paired with its result.
{"compound": "CCN(CC)C(=S)SSC(=S)N(CC)CC", "class-name": "active"}
{"compound": "Cc1ccc2c(c1)CC[C@H]1CC(=O)CC[C@]21C", "class-name": "inactive"}
{"compound": "COc1ccc(C(=O)c2ccccc2)c(O)c1", "class-name": "inactive"}

Task: Each compound tested received a call. Report the one for COc1ccc2c(c1)C1(C)CCC(=O)CC1CC2 (stereo not given) .
Result: inactive

Task: Can you handle O=[N+]([O-])O[C@H]1CO[C@H]2[C@@H]1OC[C@H]2O[N+](=O)[O-] next?
Result: inactive

Recorded values, source PubChem BioAssay AID1159580.
